Experiment: Plasma pharmacokinetics of MDCO-2010 (LC/MS/MS, non-compartmental analysis) during CABG surgery
Format: in vivo, human
Conditions: human, plasma; Cohort 4, mean dose 19.57 mg, IV infusion during CABG surgery; mean
endpoint: Cmax (ng/mL)
Field: numeric (ng/mL). Do not append units.

So for N=C(N)c1ccc(CNC(=O)[C@H](Cc2cccc(CN)c2)NC(=O)[C@@H](CCCc2ccccc2)NS(=O)(=O)Cc2cccc(C(=O)O)c2)cc1 , the logged Cmax turned out to be 564

----------
Assay: Plasma pharmacokinetics of MDCO-2010 (LC/MS/MS, non-compartmental analysis) during CABG surgery
Assay type: in vivo, human
Details: human, plasma; Cohort 4, mean dose 19.57 mg, IV infusion during CABG surgery; mean
endpoint: AUC(0-t) (ng·h/mL)
Field: numeric (ng·h/mL). Do not append units.

So for N=C(N)c1ccc(CNC(=O)[C@H](Cc2cccc(CN)c2)NC(=O)[C@@H](CCCc2ccccc2)NS(=O)(=O)Cc2cccc(C(=O)O)c2)cc1 , the logged AUC(0-t) turned out to be 1640

----------
Assay: Plasma pharmacokinetics of MDCO-2010 (LC/MS/MS, non-compartmental analysis) during CABG surgery
Type: in vivo, human
Settings: human, plasma, intravenous, following an approximately 100 minute infusion period, all cohorts; read-out: mean value for the elimination half-life
endpoint: half-life

So for N=C(N)c1ccc(CNC(=O)[C@H](Cc2cccc(CN)c2)NC(=O)[C@@H](CCCc2ccccc2)NS(=O)(=O)Cc2cccc(C(=O)O)c2)cc1 , the logged half-life turned out to be ~1.38 h

----------
Test: Plasma pharmacokinetics of MDCO-2010 (LC/MS/MS, non-compartmental analysis) during CABG surgery
Type: in vivo, human
Conditions: human, plasma; Cohort 1, mean dose 1.88 mg, IV infusion during CABG surgery; mean; read-out: Cl
endpoint: clearance (mL/min)
Field: numeric (mL/min). Do not append units.

So for N=C(N)c1ccc(CNC(=O)[C@H](Cc2cccc(CN)c2)NC(=O)[C@@H](CCCc2ccccc2)NS(=O)(=O)Cc2cccc(C(=O)O)c2)cc1 [MDCO-2010] , the logged clearance turned out to be 220

----------
Assay: Plasma pharmacokinetics of MDCO-2010 (LC/MS/MS, non-compartmental analysis) during CABG surgery
Assay type: in vivo, human
Settings: human, plasma; Cohort 3, mean dose 12.33 mg, IV infusion during CABG surgery; mean; read-out: Cl
Experimental: Nominal blood sampling times for PK analysis were pre-dose (T1, pre-heparin) and at 10 min (pre-CBP), 15 min, 30 min, 60 min (or just before cessation of CPB), at the end of infusion (sternal closure), 15 min, 30 min, and at 4 hours post-end of infusion. Actual times were calculated for each patient and used for PK analysis. MDCO-2010 was measured in plasma by liquid chromatography with tandem mass spectrometry (LC/MS/MS). […]
endpoint: clearance (mL/min)
Field: numeric (mL/min). Do not append units.

So for N=C(N)c1ccc(CNC(=O)[C@H](Cc2cccc(CN)c2)NC(=O)[C@@H](CCCc2ccccc2)NS(=O)(=O)Cc2cccc(C(=O)O)c2)cc1 [MDCO-2010] , the logged clearance turned out to be 199

----------
Experiment: Plasma pharmacokinetics of MDCO-2010 (LC/MS/MS, non-compartmental analysis) during CABG surgery
Type: in vivo, human
Conditions: human, plasma; Cohort 5, mean dose 38.01 mg, IV infusion during CABG surgery; mean
endpoint: AUC(0-inf) (ng·h/mL)
Field: numeric (ng·h/mL). Do not append units.

So for N=C(N)c1ccc(CNC(=O)[C@H](Cc2cccc(CN)c2)NC(=O)[C@@H](CCCc2ccccc2)NS(=O)(=O)Cc2cccc(C(=O)O)c2)cc1 [MDCO-2010] , the logged AUC(0-inf) turned out to be 4060

----------
Assay: Plasma pharmacokinetics of MDCO-2010 (LC/MS/MS, non-compartmental analysis) during CABG surgery
Type: in vivo, human
Details: human, plasma; Cohort 5, mean dose 38.01 mg, IV infusion during CABG surgery; mean
endpoint: AUC(0-t) (ng·h/mL)
Field: numeric (ng·h/mL). Do not append units.

So for N=C(N)c1ccc(CNC(=O)[C@H](Cc2cccc(CN)c2)NC(=O)[C@@H](CCCc2ccccc2)NS(=O)(=O)Cc2cccc(C(=O)O)c2)cc1 , the logged AUC(0-t) turned out to be 3620

----------
Test: Plasma pharmacokinetics of MDCO-2010 (LC/MS/MS, non-compartmental analysis) during CABG surgery
Assay type: in vivo, human
Settings: human, plasma; Cohort 4, mean dose 19.57 mg, IV infusion during CABG surgery; mean
endpoint: AUC(0-inf) (ng·h/mL)
Field: numeric (ng·h/mL). Do not append units.

So for N=C(N)c1ccc(CNC(=O)[C@H](Cc2cccc(CN)c2)NC(=O)[C@@H](CCCc2ccccc2)NS(=O)(=O)Cc2cccc(C(=O)O)c2)cc1 , the logged AUC(0-inf) turned out to be 1880

----------
Experiment: Plasma pharmacokinetics of MDCO-2010 (LC/MS/MS, non-compartmental analysis) during CABG surgery
Format: in vivo, human
Conditions: human, plasma; Cohort 2, mean dose 4.99 mg, IV infusion during CABG surgery; mean; read-out: Vss
endpoint: Vd (L)
Field: numeric (L). Do not append units.

So for N=C(N)c1ccc(CNC(=O)[C@H](Cc2cccc(CN)c2)NC(=O)[C@@H](CCCc2ccccc2)NS(=O)(=O)Cc2cccc(C(=O)O)c2)cc1 [MDCO-2010] , the logged Vd turned out to be 16.1

----------
Assay: Plasma pharmacokinetics of MDCO-2010 (LC/MS/MS, non-compartmental analysis) during CABG surgery
Assay type: in vivo, human
Conditions: human, plasma; Cohort 5, mean dose 38.01 mg, IV infusion during CABG surgery; mean; read-out: Cl
endpoint: clearance (mL/min)
Field: numeric (mL/min). Do not append units.

So for N=C(N)c1ccc(CNC(=O)[C@H](Cc2cccc(CN)c2)NC(=O)[C@@H](CCCc2ccccc2)NS(=O)(=O)Cc2cccc(C(=O)O)c2)cc1 , the logged clearance turned out to be 153

----------
Experiment: Plasma pharmacokinetics of MDCO-2010 (LC/MS/MS, non-compartmental analysis) during CABG surgery
Assay type: in vivo, human
Conditions: human, plasma, iv, 4.99 mg, Cohort 2, mean dose 4.99 mg, IV infusion during CABG surgery; mean; read-out: t1/2
endpoint: half-life (h)
Field: numeric (h). Do not append units.

So for N=C(N)c1ccc(CNC(=O)[C@H](Cc2cccc(CN)c2)NC(=O)[C@@H](CCCc2ccccc2)NS(=O)(=O)Cc2cccc(C(=O)O)c2)cc1 [MDCO-2010] , the logged half-life turned out to be 1.21

----------
Experiment: Plasma pharmacokinetics of MDCO-2010 (LC/MS/MS, non-compartmental analysis) during CABG surgery
Type: in vivo, human
Details: human, plasma; Cohort 2, mean dose 4.99 mg, IV infusion during CABG surgery; mean
endpoint: AUC(0-inf) (ng·h/mL)
Field: numeric (ng·h/mL). Do not append units.

So for N=C(N)c1ccc(CNC(=O)[C@H](Cc2cccc(CN)c2)NC(=O)[C@@H](CCCc2ccccc2)NS(=O)(=O)Cc2cccc(C(=O)O)c2)cc1 , the logged AUC(0-inf) turned out to be 334

----------
Assay: Plasma pharmacokinetics of MDCO-2010 (LC/MS/MS, non-compartmental analysis) during CABG surgery
Format: in vivo, human
Conditions: human, plasma; Cohort 1, mean dose 1.88 mg, IV infusion during CABG surgery; mean
endpoint: AUC(0-t)

So for N=C(N)c1ccc(CNC(=O)[C@H](Cc2cccc(CN)c2)NC(=O)[C@@H](CCCc2ccccc2)NS(=O)(=O)Cc2cccc(C(=O)O)c2)cc1 , the logged AUC(0-t) turned out to be 125 ng·h/mL
